All figures here come from the supplement of paper PMC10567573.

# protein stability index per entry
B1: HESX1 (parent)
chain: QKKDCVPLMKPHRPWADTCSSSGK

Variants of: B1
test_description: protein stability index of a GFP-peptide fusion (GPS, HEK-293T) (PSI 1-6); higher = more stable;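 further: lentivirally expressed fusions sorted by FACS into six bins by GFP to DsRed ratio, PSI derived from sequencing read proportions per bin multiplied by bin number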
condition_context: c terminus: a fixed tail appended
parameter: protein stability index

1) QKKDCVPLMKPHRPWADTCSSSLK [G23L] | 3.46
2) QKKDCVPLMKPHRPWADMCSSSGK [T18M] | 2.44
3) QKKDCVPLMKPHRPWADTCSSSGS [K24S] | 2.23
4) QKKDCVPLMKPHRPWADTCSVSGK [S21V] | 3.15
5) QKKMCVPLMKPHRPWADTCSSSGK [D4M] | 2.12
6) QKKDCHPLMKPHRPWADTCSSSGK [V6H] | 3.17
7) QKKDCVPLMKPHRPWADTCSGSGK [S21G] | 3.92
8) QKKDCVPAMKPHRPWADTCSSSGK [L8A] | 3.29
